assay: blockers of RIG-like receptor reporter activation – cell-based, Sendai virus stimulus, luciferase, 10K MLSCN set, TLR/RLR signaling modifier project, primary screen (AID 602276);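 further: firefly luciferase from ISG56 promoter only with Renilla not read in this screen; 0% = Sendai virus plus DMSO and 100% = medium plus DMSO without virus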
reported conditions: HEK293 RL24 IRF3 luciferase reporter, at 10 µM, active compounds read high

- molecule: "COc1ccc(CN(CC(=O)NCC2CCCO2)C(=O)CCC(=O)Nc2cc(C)on2)cc1 (centres undefined)"
  inhibition / %: -9.53
- molecule: "Cc1ccc(OCC2Cn3c(nc4c3c(=O)n(C)c(=O)n4C)O2)cc1 (centres undefined)"
  inhibition / %: 17.1
- molecule: "O=C(Nc1ccccc1C(=O)N1CCOCC1)c1cccc(S(=O)(=O)N2CCCC2)c1"
  inhibition / %: 2.51
- molecule: "Cc1cc(NC(=O)CCCC(=O)Nc2ccc(F)cc2)no1"
  inhibition / %: 5.46
- molecule: "O=C(CSCc1cccc(F)c1)N1CCN(c2ccccc2)CC1"
  inhibition / %: -32.3
- molecule: "O=C(CCn1c(=O)oc2ccccc21)NCCN1CCOCC1"
  inhibition / %: -16.3
- molecule: "CC(C)(C)OC(=O)NC(CCNC=C1C(=O)OC(C)(C)OC1=O)C(=O)O (centres undefined)"
  inhibition / %: 5.28
- molecule: "Cc1ccccc1C(=O)NC1CCN(Cc2nnnn2Cc2ccccc2)CC1"
  inhibition / %: 7.81
- molecule: "O=C1C2C3C=CC(C3=C3CCCCC3)C2C(=O)N1c1ccccc1 (centres undefined)"
  inhibition / %: 12.4
- molecule: "C=CCSc1nnc(-c2ccc(Cl)cc2Cl)o1"
  inhibition / %: -1.24
- molecule: "Cc1cccc(NC(=O)c2oc3c(c2C)C(=O)CC(C)(C)C3)n1"
  inhibition / %: -18
- molecule: "CCCC(=O)N1CCN(c2ccc(NC(=O)c3ccc(Br)o3)cc2)CC1"
  inhibition / %: -9.3
- molecule: "c1ccc(CNc2ccc3c(c2)ncn3C2CCCCC2)nc1"
  inhibition / %: -10.6
- molecule: "Cc1c(C#N)c(N)c(C(=O)c2ccccc2)n1Cc1ccccc1"
  inhibition / %: -20.6
- molecule: "Cc1nc2ccccc2c(=O)n1NC(=O)Nc1ccccc1"
  inhibition / %: 12.6
- molecule: "CCOC(=O)Nc1ccc2c(c1)N(C(=O)CN(CC)CC)c1ccccc1C=C2"
  inhibition / %: 18.3
- molecule: "COC(=O)c1ccccc1NC(=O)c1cnc2sccn2c1=O"
  inhibition / %: 5.91
- molecule: "CCc1nnc(NC(=O)c2ccc(S(=O)(=O)NC3CCCCC3)cc2)s1"
  inhibition / %: 0.752
- molecule: "Cc1cnc(NC(=O)CSc2nnc(-c3ccccc3)n2Cc2ccccc2)s1"
  inhibition / %: -3.73
- molecule: "COc1ccccc1C(=O)Nc1ccccc1C(=O)N1CCCC1"
  inhibition / %: 15.4
- molecule: "Clc1c(CSc2nc3ccccc3o2)nc2sccn12"
  inhibition / %: -56.6
- molecule: "CC1CCc2nn(CC(=O)NCc3ccc(F)cc3)cc2C1 (centres undefined)"
  inhibition / %: -0.348
- molecule: "CCN(CC)C(=O)C1CCC(CNS(=O)(=O)c2cccc3cccnc23)CC1 (centres undefined)"
  inhibition / %: 11.4
- molecule: "CCCCN(Cc1cc2cc(OC)ccc2[nH]c1=O)C(=O)COc1ccccc1"
  inhibition / %: 7.27
- molecule: "c1ccc2nc(-c3nc4ccccc4[nH]3)ccc2c1"
  inhibition / %: 11.5
- molecule: "O=C(O)C1CCCN1C(=O)Nc1ccc(F)cc1 (centres undefined)"
  inhibition / %: 8.17
- molecule: "CC1CCCN(S(=O)(=O)c2ccc(C(=O)Nc3nnc(-c4ccccc4Cl)o3)cc2)C1 (centres undefined)"
  inhibition / %: 22.7
- molecule: "COc1ccc(C(C)NC(=O)c2ccoc2C)cc1OC (centres undefined)"
  inhibition / %: 14.4
- molecule: "CC1CN(c2c3c(nc4ncnn24)CCCC3)CC(C)O1 (centres undefined)"
  inhibition / %: 14.7
- molecule: "CCN(CC)CCCNC1CCS(=O)(=O)C1 (centres undefined)"
  inhibition / %: 2.02
- molecule: "Cc1nn(C(=O)c2ccccc2)c2c1C(=O)CC(C)(C)C2"
  inhibition / %: 18.8
- molecule: "COc1ccccc1CC(=O)NCC1CCCO1 (centres undefined)"
  inhibition / %: 11.5
- molecule: "C(=N\\n1cnnc1)/c1cccc(OCCOc2ccccc2)c1"
  inhibition / %: -29.6
- molecule: "CCC1(CC)C(=O)N(C)C(=O)NC1=NCc1ccccc1"
  inhibition / %: 18.2

The origin of these recorded values is PubChem BioAssay.
